Please go through the items and note down their binding score.
Tested Target: SARS-CoV-2 spike RBD (WT) (Severe acute respiratory syndrome …, UniProt P0DTC2)
Test Name: ELISA
Parameters: unit not given here
Answers are plain numbers.

binder="D170 (antibody, V domains shown) VH: QVQLVQSGAEVKKPGSSVKVSCKASGGTFSSYAISWVRQAPGQGLEWMGGIIPIFGTANYAQKFQGRVTITADESTSTAYMELSSLRSEDTAVYYCAREGGYCSGGSCSHYFDAFDIWGQGTMVTVSS VL: QSALTQPASVSGSPGQSITISCTGTSSDVGSYNLVSWYQQHPGKAPKLMIYEGSKRPSGVSNRFSGSKSGNTASLTISGLQAEDEADYYCCSYAGSSTFWVFGGGTKLTVL" result_value=3050

query: Need binding score, item C2704 (antibody, V domains shown) VH: EVQLVESGGDLVQPGGSLRLSCAASGFTFSTSWMHWVRQAPGKGLVWVSHINGDGSTTIYADSVKGRFTISRDNAKNTLYLQMNTLRAEDTAVYYCARNTGTHFDYWGQGTLVTVSS VL: QSALTQPASVSGSPGQSITISCTGTSSDVGRYNYVSWYQQHPGKAPKVMIYDVSNRPSGVSNRFSGSKSGNTASLTISGLQAEDEADYYCSSYTSSSPWVFGGGTKLTVL
result: 410
